# credit: patent US20230303994

target entity: pre-pro-human insulin
Some proteins, each annotated with its measured Selectivity.
property name: Selectivity

>>> val("trypsin variant SEQ ID NO: 49 (protein) IVGGYTCAANSIPYQVSLNSGSHTCGGSLINSQWVVSAAHCYKSRIQVRLGEHNIDVLEGNEQFINAAKIITHPNFNGNTLDNDIMLIKLSSPATLNSRVATVSLPRSCAAAGTECLISGWGNTKSSGSSYPSLLQCLKAPVLSDSSCKSSYPGQITGNMICVGFLEGGKDACQGDSGGPVVCNGQLQGIVSSGYGCAQKNKPGVYTKVCNYVNWIQQTIAAN")
">80%"
>>> val("trypsin variant SEQ ID NO: 95 (protein) IVGGYTCAANSIPYQVSLNSGSHRCGGSLINSQWVVSAAHCYKPRIQVRLGEHNIHVLEGNEQFINAAKIITHPNFNPNTLDNDIMLIKLSSPATLNSHVATVSLPRSCAAAGTECLISGWGNTSSSGSSMPSLLQCLKAPVLSDSSCKSSYPGQITGNMICVGFLEGGADACQGDSGGPVVCNGQLQGIVSSGYGCAQKNKPGVYTKVCNYVNWIQQTIAAN")
">90%"
>>> val("trypsin variant SEQ ID NO: 111 (protein) IVGGYTCAANSIPYQVSLNSGSHRCGGSLINSQWVVSAAHCYKPRIQVRLGEHNIHVLEGNEQFINAAKIITHPNFNPNTLDNDIMLIKLSSPATLNSHVATVSLPTSCAAAGTECLISGWGNTSSSGSSYPSLLQCLKAPVLSDSSCKSSYPGQITGNMICVGFLEGGADACQGDSGGPVVCNGQLQGIVSSGYGCAQKNKPGVYTKVCNYVNWIQQTIAAN")
">80%"
